Please provide measured growth for the entries that follow.
# Tested on: NCI-H522 lung
# assay: NCI-60 one-dose screen, 48 h (100 = growth as untreated, 0 = no growth, -100 = all killed)
# assay-conditions: 10 µM
# Description: Growth inhibition of the NCI-H522 human Non-Small Cell Lung tumor cell line is measured as a screen for anti-cancer activity. Cells are grown in 96 well plates and exposed to the test compound for 48 hours. Compounds are tested at a single concentration, which is 10^-5 M for most compounds. The reported endpoint is percent growth (GI% or GIPRCNT), where numbers from 0 - 100% represent growth inhibition, and numbers from -100% - 0 represent cell death. […]
Compounds without any hit were thinned out: in the full panel of roughly 83,000, 20% have a hit. Calls of active or inactive are those of the source. How the source made its calls: active means growth percent below 10; inactive means the rest.

INSERT INTO measurements (molecule, measured_attribute, value_reported) VALUES
  ('O=C(COc1cccc(/C=C2\Oc3ccc4ccccc4c3C2=O)c1)c1ccc([N+](=O)[O-])cc1', 'growth', '35.8% (inactive)'),
  ('Cc1ccc(C(NC(=O)c2ccccc2)c2ccc3cccnc3c2O)cc1 (configuration not stated)', 'growth', '-5.42% (active)'),
  ('O=C(O)CCNS(=O)(=O)c1ccc(-c2ccccc2)cc1', 'growth', '98.4% (inactive)'),
  ('O=C(/C=C/c1cccc(O)c1)c1cccc(-n2cc(-c3ccccc3)[nH]c2=O)c1', 'growth', '-21.8% (active)'),
  ('COc1ccc(C(=O)COc2cccc(/C=C3\COc4ccc5ccccc5c4C3=O)c2)cc1', 'growth', '44.1% (inactive)'),
  ('Cc1ccc(OCC(=O)Nc2ccc(Oc3ccccc3)cc2)c([N+](=O)[O-])n1', 'growth', '33.2% (inactive)'),
  ('CC(=O)Nc1ccc(C(=O)COc2cccc(/C=C3\CCc4ccccc4C3=O)c2)cc1', 'growth', '63.1% (inactive)'),
  ('C#C[C@]1(O)CCC2C3CCc4cc(O)ccc4C3CC[C@@]21C (some centres not stated)', 'growth', '10.6% (inactive)'),
  ('CC[C@H]1CN2CCc3cc(OC)c(OC)cc3C2C[C@@H]1CC1NCCc2cc(OC)c(OC)cc21 (some centres not stated)', 'growth', '-71.2% (active)'),
  ('CCC(C)C1NC(=O)C(CCNCS(=O)(=O)O)NC(=O)C(NC(=O)C(CCNCS(=O)(=O)O)NC(=O)C(NC(=O)C(CCNCS(=O)(=O)O)NC(=O)CCCCC(C)C)C(C)O)CCNC(=O)C(C(C)O)NC(=O)C(CCNCS(=O)(=O)O)NC(=O)C(CCNCS(=O)(=O)O)NC(=O)C(C(C)CC)NC1=O (configuration not stated)', 'growth', '10.5% (inactive)');

Provide growth for all items below, preserving their order.
1. NC(=O)c1cc(Br)cc(Br)c1NS(=O)(=O)c1ccccc1
2. CC(=O)O[C@H]1CC[C@@]2(C)C(=CC[C@@H]3[C@@H]2CC[C@]2(C)C(c4cccnc4)=CC[C@@H]32)C1

OUT:
100% (inactive)
38.3% (inactive)

----------
# Test system: HOP-62 NSCLC
# assay: NCI-60 one-dose screen, 48 h
# assay-conditions: 10 µM unless noted
This is part of a sample that, as a whole, favours compounds with a hit. Of some 83,000 tested, about 20% had one in any assay. Activity calls are given as the source filed them. How the source made its calls: active means growth percent below 10; inactive means the rest.
Can you answer with just one of these options? active, inactive

Recorded results for 5 compounds are shown here.
INSERT INTO assay_data (compound, assigned_class) VALUES
  ('COc1ccc2nc(N/N=C(\C)c3ccccn3)cc(C)c2c1', 'active'),
  ('CCCCCCCCCCN1CCC(N2CCCCC2)CC1', 'active'),
  ('O=C1/C(=C/c2cccc(Cl)c2)CCc2ccccc21', 'inactive'),
  ('O=C1c2cccc3c([N+](=O)[O-])ccc(c23)C(=O)N1CCCCl', 'active'),
  ('COc1cc(/C=C/C(=O)CC(=O)/C=C/c2ccc(OC(=O)C3C4CC5CC(C4)CC3C5)c(OC)c2)ccc1OC(=O)C1C2CC3CC(C2)CC1C3 (configuration not stated)', 'inactive');

IN: Recorded test call requested for O=C1NC(=O)/C(=C\c2ccco2)S1
OUT: inactive

IN: Recorded test call requested for CC(C)Sc1nc(-c2ccc(Br)cc2)c(C#N)c(N2CCCCC2)n1
OUT: inactive

IN: Recorded test call requested for O=CN1N=C(c2ccc(Cl)cc2)CC1c1cccc(Nc2ccnc3cc(Cl)ccc23)c1 (configuration not stated)
OUT: active

IN: Recorded test call requested for O=C1C2C(C(=O)N1CC[Se][Se]CCN1C(=O)C3C(C1=O)[C@H]1C=C[C@@H]3C1)[C@H]1C=C[C@@H]2C1 (some centres not stated)
OUT: active

IN: Recorded test call requested for O=C(CC1Sc2ccccc2NC1=O)NNc1cccc(Cl)c1Cl (configuration not stated)
OUT: inactive
